- PROTOCOL: Phase 2 toxicokinetics of brincidofovir and cidofovir in plasma
- Type: in vivo, Sprague-Dawley CD rats
- MEASUREMENT_CONTEXT: male, Sprague-Dawley CD, rat, plasma, intravenous, 15 mg/kg, plasma; 15 mg/kg; male rats; Day 1; 8 h; read-out: IC (Imputed Concentration), individual animals
VALUE_TYPE: concentration at 8 h (ng/mL)

> print(dat)
                                smiles.text  endpoint.value
1  CCCCCCCCCCCCCCCCOCCCOP(=O)(O)CO[C@H](CO)Cn1ccc(N)nc1=O            10.7

* * *

- PROTOCOL: Plasma BCV PK following single dose oral tablet administration (Table 105)
- Format: in vivo
- MEASUREMENT_CONTEXT: human, 200 mg Oral Tablet, N = 15, geometric mean
VALUE_TYPE: half-life (h)

> print(dat)
                                   compound  endpoint.value
1  CCCCCCCCCCCCCCCCOCCCOP(=O)(O)CO[C@H](CO)Cn1ccc(N)nc1=O [Brincidofovir]              12

Hey, just so you know, these numbers are from patent US20170368082A1.
